Target: B1 bradykinin receptor (Homo sapiens, UniProt P46663)
Sequence (P46663 whole entry): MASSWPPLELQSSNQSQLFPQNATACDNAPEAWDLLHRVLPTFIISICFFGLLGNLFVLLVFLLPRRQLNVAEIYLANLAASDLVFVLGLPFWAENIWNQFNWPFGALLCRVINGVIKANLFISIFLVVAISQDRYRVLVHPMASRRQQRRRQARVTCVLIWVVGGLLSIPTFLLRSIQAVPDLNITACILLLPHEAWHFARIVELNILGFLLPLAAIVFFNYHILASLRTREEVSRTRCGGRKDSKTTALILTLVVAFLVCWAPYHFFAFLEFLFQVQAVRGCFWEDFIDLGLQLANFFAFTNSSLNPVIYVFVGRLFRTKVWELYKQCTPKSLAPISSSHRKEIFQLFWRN
Assay: Antagonist activity at human cloned B1 receptor expressed in african green monkey COS7 cells by calcium mobilization assay
Assay type: functional, cell-based, COS-7
pKi: −log10 of the molar value.
Outcome: YES for pKi of at least 7; NO for anything lower.

Query: Please check the record COc1cc(CN(CC(=O)NCc2ccccc2Cl)S(=O)(=O)c2ccc(CN(C)C)cc2)ccc1OCC(C)C and state if its pKi is at or above 7.
Reply: NO

Query: Answer whether pKi of COc1cc(CN(CC(=O)NCc2ccccc2Cl)S(=O)(=O)c2ccc(CN3CCCCC3)cc2)ccc1OCC(C)C is greater than or equal to 7.
Reply: NO

Query: Identify whether the reported pKi of the following compound is 7 or greater: COc1cc(CN(CC(=O)NCc2ccccc2Cl)S(=O)(=O)c2ccc(CN3CCN(C)CC3)cc2)ccc1OCC(C)C
Reply: YES

Query: Does pKi meet or surpass 7 for COc1cc(CN(CC(=O)NCc2ccccc2Cl)S(=O)(=O)c2ccc(CN3CCOCC3)cc2)ccc1OCC(C)C ?
Reply: NO

Query: // inclusive: pKi at least 7? input: CC(C)COc1ccc(CN(CC(=O)NCc2ccccc2Cl)S(=O)(=O)c2ccc(CN3CCN(C)CC3)cc2)cc1Cl
Reply: NO

---

target: B1 bradykinin receptor (Homo sapiens); assay: Displacement of [3H]desArg from human B1 in human WI 38 cells; assay type: cell-based
Consider the reported Ki of an entry and match it to a band in bottom (below 100 nM), middle (100 nM to below 1000 nM), top (1000 nM or more)

Query: Form field 'band' for COc1ccccc1CCNC(=O)CN(CCOc1ccc2c(c1)OCO2)S(=O)(=O)c1ccc(Cl)cc1Cl
Reply: middle

Query: Band for the recorded Ki of O=C(O)CCNC(=O)CN(CCOc1ccc2c(c1)CCC2)S(=O)(=O)c1ccc(Cl)cc1Cl ?
Reply: middle

Query: Class? Entry: COc1cc(CN(CC(=O)NCc2ccccc2Cl)S(=O)(=O)c2ccc(CN3CCCCC3)cc2)ccc1OCC(C)C
Reply: bottom

Query: Which category does the recorded Ki put CC(C)COc1ccc(CN(CC(=O)NCc2ccccc2Cl)S(=O)(=O)c2ccc(CN3CCN(C)CC3)cc2)cc1Cl in?
Reply: bottom

Query: Hi there! Could you help me figure out the category for COc1cc(CN(CC(=O)NCc2ccccc2Cl)S(=O)(=O)c2ccc(CN3CCOCC3)cc2)ccc1OCC(C)C please?
Reply: middle

Query: Lab note: sort COCCCNC(=O)CN(CCOc1ccc2c(c1)CCC2)S(=O)(=O)c1ccc(Cl)cc1Cl into the matching Ki band.
Reply: top

Query: Form: Item = O=C(O)CCNC(=O)CN(CCOc1ccc2c(c1)OCO2)S(=O)(=O)c1ccc(Cl)cc1Cl ; Class = ?
Reply: top

Query: Class (by measured Ki) for CNC(=O)CN(CCOc1ccc2c(c1)CCC2)S(=O)(=O)c1ccc(Cl)cc1Cl
Reply: top

Query: GET /class?item= COc1cc(CN(CC(=O)NCc2ccccc2Cl)S(=O)(=O)c2ccc(CN(C)C)cc2)ccc1OCC(C)C
Reply: bottom

Query: # bin lookup: classify O=C(O)CCNC(=O)CN(CCOc1cccc(Cl)c1)S(=O)(=O)c1ccc(Cl)cc1Cl by its Ki
Reply: top

Query: For this compound, which bin applies? O=C(O)CCNC(=O)CN(CCOc1ccccc1)S(=O)(=O)c1ccc(Cl)cc1Cl
Reply: top

Query: Which of the defined bands does the recorded Ki of COc1cc(CN(CC(=O)NCc2ccccc2Cl)S(=O)(=O)c2ccc(CN3CCN(C)CC3)cc2)ccc1OCC(C)C sit within?
Reply: bottom

Query: Dear colleague, I would appreciate it if you could identify the bin for CC(C)COc1ccc(CN(CC(=O)NCc2ccccc2Cl)S(=O)(=O)c2ccc(CN3CCN(C)CC3)cc2)cc1 and reply at your convenience.
Reply: middle
